The measurements presented in this section are drawn from ChEMBL document CHEMBL1140130.

EXPERIMENTAL PROTOCOL: Clearance in dog at 4.2 mg/kg, iv
Assay type: ADME, organism-based, Canis lupus familiaris
Design: dose 4.2 mg/kg, route intravenous
CONDITION CONTEXT: in vivo
RECORDED METRIC: clearance (mL/min/kg)

1) CCn1c(-c2nonc2N)nc2c(C#CC(C)(C)O)ncc(OC[C@H]3CCCNC3)c21 [GSK-690693]	34.6

====

EXPERIMENTAL PROTOCOL: Clearance in rat at 10.6 mg/kg, iv
Format: ADME, organism-based
Parameters: dose 10.6 mg/kg, route intravenous
CONDITION CONTEXT: in vivo
RECORDED METRIC: clearance

1. CCn1c(-c2nonc2N)nc2c(C#CC(C)(C)O)ncc(OC[C@H]3CCCNC3)c21	56.7 mL/min/kg

====

Consider compounds characterized by their IC50 with RAC-gamma serine/threonine-protein kinase (Homo sapiens, UniProt Q9Y243).
Sequence (Q9Y243 whole entry): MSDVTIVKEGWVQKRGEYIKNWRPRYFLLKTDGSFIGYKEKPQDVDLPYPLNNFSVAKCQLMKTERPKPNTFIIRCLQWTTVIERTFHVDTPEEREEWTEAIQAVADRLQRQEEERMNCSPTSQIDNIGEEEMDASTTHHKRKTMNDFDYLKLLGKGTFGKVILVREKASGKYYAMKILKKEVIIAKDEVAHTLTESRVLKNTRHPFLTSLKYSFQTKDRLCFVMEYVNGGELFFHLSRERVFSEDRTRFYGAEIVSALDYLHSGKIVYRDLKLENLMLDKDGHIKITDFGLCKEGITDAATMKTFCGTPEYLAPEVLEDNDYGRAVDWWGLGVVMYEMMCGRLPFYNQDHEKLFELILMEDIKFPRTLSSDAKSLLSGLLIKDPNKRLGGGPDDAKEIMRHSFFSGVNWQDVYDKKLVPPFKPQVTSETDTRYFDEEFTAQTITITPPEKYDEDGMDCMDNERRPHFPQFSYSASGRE
RECORDED METRIC: IC50 (nM)

1) CCn1c(-c2nonc2N)nc2cncc(C(=O)NCCNC)c21 [GW876790X]	1410
2) CCn1c(-c2nonc2N)nc2c(C#CC(C)(C)O)ncc(OCC3CCNCC3)c21 [GSK-554170A]	40
3) CCn1c(-c2nonc2N)nc2cncc(C(=O)N3CC[C@@H](N)C3)c21	1290
4) CCn1c(-c2nonc2N)nc2cncc(OC3CCNCC3)c21	398
5) CCn1c(-c2nonc2N)nc2cncc(C(=O)NC3CCCNC3)c21 (stereo not drawn)	3020
6) CCn1c(-c2nonc2N)nc2cncc(C(=O)N3CCNCC3)c21	1550
7) CCn1c(-c2nonc2N)nc2cncc(OCC3CCNCC3)c21	380
8) CCn1c(-c2nonc2N)nc2cncc(CNC3CCNCC3)c21	646
